Tested on: Hs-578T
Test: NCI tumour cell line growth inhibition, 48 h
Active and inactive are the calls of the source. Cut-off read from the data, not from the text of the source: active = GI50 up to about 1.1 µM and inactive = higher.
Response enum: active, inactive

Worked examples, 5 compounds total:
QUERY: Recorded test outcome, item COc1ccc(NC(C)=O)c(C(O)CCNC(C)=O)c1 (stereo unspecified)
RESULT: inactive

QUERY: // outcome(item) with item = O=C(CC(O)(C(F)(F)F)C(F)(F)F)C(CCCl)C(O)(C(F)(F)F)C(F)(F)F (stereo unspecified)
RESULT: inactive

QUERY: Could you please tell me the result logged for O=CCCCCCOCc1ccccc1 in this assay?
RESULT: inactive

QUERY: Hi, do you know how CCOC(=O)c1csc(NC(=O)CN2CCOCC2)n1 came out in this test?
RESULT: inactive

QUERY: Check the results log: what was the call for Nc1nc(Cl)cc(NCC2(CO)CCC(O)C2)n1 (stereo unspecified) ?
RESULT: inactive

Further cases:
QUERY: Entry N#CC(C#N)=Cc1c(O)ccc2ccccc12 : call = ?
RESULT: inactive

QUERY: What call does the record list for COCC12CCC(OC)C34C5CC6(O)C(OC)CC(OC(C)=O)(C5C6OC(=O)c5ccccc5)C(C(OC)C13)C4N(C)C2 (stereo unspecified) ?
RESULT: inactive

QUERY: How was COc1ccccc1C1c2cc3c(cc2OC(N2CCOCC2)C1C)OCO3 (stereo unspecified) classified in this test?
RESULT: inactive

QUERY: Look up the recorded call for CCN(CC)Cc1cc(Nc2ccnc3ccc4c(nnn4C)c23)ccc1O in this test.
RESULT: inactive

QUERY: Entry CCN1CCC(O)(c2ccc(Oc3ccc(Cl)cc3)cc2)C(C(=O)c2ccc(Oc3ccc(Cl)cc3)cc2)C1 (stereo unspecified) : call = ?
RESULT: inactive

QUERY: State the result this test recorded for OC(CC1CCCCN1)c1ccc2c(c1)oc1ccccc12 (stereo unspecified) .
RESULT: inactive

QUERY: Outcome? OCCCCn1cc(Cn2ncc3c(SCc4ccccc4)ncnc32)nn1
RESULT: inactive

QUERY: Record lookup: outcome of this test for Cc1ccc(C)c(COCCOCn2cc(Br)c(N)nc2=O)c1 ?
RESULT: inactive

QUERY: Which outcome was entered for the compound C[C@H](CCc1nc(C#N)c(N)o1)[C@H]1CC[C@H]2[C@@H]3[C@@H](O)CC4C[C@@H](O)CC[C@]4(C)[C@H]3C[C@@H](O)[C@]12C (stereo partly specified) in this test?
RESULT: inactive

QUERY: Tell me the recorded outcome of this test for O=C(CCCCCCCCC(=O)N1C(=O)CC(=O)N(c2ccccc2)C1=S)N1C(=O)CC(=O)N(c2ccccc2)C1=S .
RESULT: inactive

QUERY: What is the recorded call for this compound in the test? COc1ccc([N+](=O)[O-])c2c(NCCCN(C)C)c(C)c(C)nc12
RESULT: inactive

QUERY: What outcome does the record of this test show for Nc1c(-c2ccccc2)c2ccc([N+](=O)[O-])cc2c(=O)n1-c1cccc(C(=O)O)c1 ?
RESULT: inactive

QUERY: Write down the call the test reported for this compound. Item: OC(c1cc2ccccc2[nH]1)C1(c2cccnc2)SCCCS1 (stereo unspecified)
RESULT: inactive

QUERY: Which outcome did this test record for the compound O=c1cn[nH]c(=S)n1/N=C/c1c[nH]c2ccccc12 ?
RESULT: inactive

QUERY: Field: outcome | Entry: C#C[C@]1(O)CC[C@H]2[C@@H]3CCC4=C/C(=N/OC(=O)c5cccc6cc7ccccc7nc56)CC[C@@H]4[C@H]3CC[C@@]21CC
RESULT: inactive

QUERY: Outcome logged for CSc1nc(C#N)c(N)n1C in this assay:
RESULT: inactive

QUERY: Assay result, entry O=C1c2ccccc2C(=O)N1c1ccc(OCCN2CCCCC2)cc1 — outcome?
RESULT: inactive
